# measurementProtocol: Phase 1 single ascending dose (SAD) pharmacokinetics, fasted
# Type: in vivo, human
# conditionSummary: male, human, plasma; single oral 0.3 mg/kg, fasted; median; read-out: Tmax
parameterMeasured: Tmax (h)
The response must be a number in h with no trailing unit.

Which Tmax is listed for C[C@@H]1C[C@H]2[C@@H]3CCC4=CC(=O)C=C[C@]4(C)C3=CC[C@]2(C)[C@@]1(O)C(=O)CO [vamorolone] ?
1.5

---

# System: white blood cells and subsets (lymphocytes, neutrophils, eosinophils)
# measurementProtocol: Differential white blood cell counts (immune suppression), MAD
# Type: in vivo, human
# conditionSummary: MAD 20.0 mg/kg; Day 14 predose; mean
parameterMeasured: Eosinophils

// lookup Eosinophils for C[C@@H]1C[C@H]2[C@@H]3CCC4=CC(=O)C=C[C@]4(C)C3=CC[C@]2(C)[C@@]1(O)C(=O)CO [vamorolone]
0.16 10^9/L
